- System: KM12 colon
- RUN_DESCRIPTION: NCI-60 one-dose screen, 48 h
- MEASUREMENT_SETUP: 10 µM unless noted
This is part of a sample that, as a whole, favours compounds with a hit. Of some 83,000 tested, about 20% had one in any assay. The source made the active and inactive calls. The calls were made as follows: active = growth percent below 10; inactive = the rest.
Pick one: 1 = active, -1 = inactive

Some solved cases for reference:
SMILES_STRING: CCc1cc(OC(=O)N2CCC(N3CCCCC3)CC2)ccc1Nc1cc(-c2ccc(-n3cccn3)cc2)[nH]n1
ASSIGNED_LABEL: -1
--
SMILES_STRING: O=C(Nc1ccccc1)Nc1nc2ccc([N+](=O)[O-])cc2[nH]1
ASSIGNED_LABEL: -1
--
SMILES_STRING: Cc1csc(/N=C(N)/N=C(\N)c2cccc(C#N)c2)n1
ASSIGNED_LABEL: -1
--
SMILES_STRING: Oc1[nH]c2ccc(Cl)cc2c1N=Nc1nc(N=Nc2c(O)[nH]c3ccc(Cl)cc23)nc(N2CCOCC2)n1
ASSIGNED_LABEL: -1
--
SMILES_STRING: C#CCOc1cccc(/C(N)=N/C(N)=N/c2nc3ccccc3s2)c1
ASSIGNED_LABEL: -1

For `CC1(C)C=Cc2cc(/C(N)=N/C(N)=N/c3nc4ccccc4s3)ccc2O1` , which call appears in the assay record?
-1

For `O=c1c2ccccc2cc2n1CCN=C2c1ccccc1` , which call appears in the assay record?
-1

For `COc1ccc(C(C)=C(c2ccc(OCCN(C)C)cc2)c2ccc(OCCN(C)C)cc2)cc1` , which call appears in the assay record?
1

For `O=[N+]([O-])c1ccc(NC(=S)NNC(=S)Nc2ccc(F)cc2)cc1` , which call appears in the assay record?
-1

For `Cc1ccccc1NC(=O)Nc1nc2ccc([N+](=O)[O-])cc2s1` , which call appears in the assay record?
1

For `Cc1cc(Br)ccc1-n1cc(C#N)c(N)c1C(=O)c1ccc(Br)cc1` , which call appears in the assay record?
-1

For `CN1CCN(CCCCCC(=O)Nc2nc(-c3cccc(NS(=O)(=O)c4cccc5c(N(C)C)cccc45)c3)cs2)CC1` , which call appears in the assay record?
-1

For `COc1ccc(/C=N/NC(=O)CSc2nc(-c3cnccn3)cc(-c3cccs3)c2C#N)cc1` , which call appears in the assay record?
-1

For `CN1CCN(Cc2ccc(NC(=O)c3cncc(C#Cc4cnc5ccc(OCC6COC6)nn45)c3)cc2C(F)(F)F)CC1` , which call appears in the assay record?
1

* * *

- Test system: UACC-62 melanoma
- RUN_DESCRIPTION: NCI-60 one-dose screen, 48 h (100 = growth as untreated, 0 = no growth, -100 = all killed)
- MEASUREMENT_SETUP: 10 µM unless noted
This is part of a sample that, as a whole, favours compounds with a hit. Of some 83,000 tested, about 20% had one in any assay.
VALUE_TYPE: growth (%)
State just the number; it will be interpreted in %.

Guide cases for growth, answers given:
SMILES_STRING: N#CC1=C2NCCCNc3oc(nc3C#N)Cc3ccccc3CC(=N1)O2
growth [%]: 87.5

SMILES_STRING: CC(C)(C)c1cc(NC(=O)Nc2ccc(-c3cn4c5c(sc4n3)CCc3c[nH]cc3-5)cc2)no1
growth [%]: 49.9

SMILES_STRING: O=C(/C=C/c1ccccc1)c1cccc(O)c1
growth [%]: 81.1

SMILES_STRING: O=C(Nc1cccc(Cl)c1)Nc1nc2cc([N+](=O)[O-])ccc2o1
growth [%]: 29.1

SMILES_STRING: Cc1ccsc1[C@H]1c2[nH]c3ccccc3c2C[C@H]2C(=O)N(CCCCCCC(=O)NO)CC(=O)N12
growth [%]: 57.9

SMILES_STRING: O=C(CCCCCCNC(=O)c1csc(Br)n1)NO
growth [%]: 14.4

SMILES_STRING: C#Cc1cc(C(=O)Nc2ccc(CNCCN3CCOCC3)c(C(F)(F)F)c2)ccc1C
growth [%]: 93.9

SMILES_STRING: CCN(CC)CCOc1ccc(C(=C(C)Cc2ccc(OC)cc2)c2ccc(OCCN(CC)CC)cc2)cc1
growth [%]: -37.6

SMILES_STRING: CCN(CC)c1ccc(/C=N/NC(=O)c2ccc(NS(C)(=O)=O)cc2)cc1
growth [%]: 12.3

SMILES_STRING: Cc1csc(/N=C(N)/N=C(\N)c2cccnc2)n1
growth [%]: 40.2

Find the recorded growth belonging to `O=C(/C=C/c1cc(Cl)ccc1Cl)Nc1ncc(Cc2ccc(Cl)cc2)s1` and report it.
29.1

Find the recorded growth belonging to `CCNC(=O)Oc1ccc(/C(=C(/C)c2ccc(OC)cc2)c2ccc(OCCN3CCCCCC3)cc2)cc1` and report it.
41

Find the recorded growth belonging to `O=C(/C=C/c1cccc(C(F)(F)F)c1)Nc1cccc(C(F)(F)F)c1` and report it.
84.5

Find the recorded growth belonging to `CC1(C)C=Cc2cc(/C(N)=N/C(N)=N/c3nc4ccccc4s3)ccc2O1` and report it.
96.7

Find the recorded growth belonging to `Cc1ccc2c(n1)C(=O)C(Cl)=C(Nc1ccc(C(C)C)cc1)C2=O` and report it.
86.3

Find the recorded growth belonging to `O=C1[C@@H]2Cc3c([nH]c4ccccc34)[C@@H](c3ccc(Cl)cc3)N2C(=O)CN1C1CCN(Cc2c(F)cccc2F)CC1` and report it.
40.7

Find the recorded growth belonging to `CCOP(=O)(OCC)OC[C@]12CCC(C)(C)C[C@H]1C1=CC[C@@H]3[C@@]4(C)CC[C@H](OP(=O)(OCC)OCC)C(C)(C)[C@@H]4CC[C@@]3(C)[C@]1(C)CC2` and report it.
53.9

* * *

- System: KM12 colon
- RUN_DESCRIPTION: NCI-60 one-dose screen, 48 h (100 = growth as untreated, 0 = no growth, -100 = all killed)
- MEASUREMENT_SETUP: 10 µM unless noted
The panel holds about 83,000 compounds, 20% with a hit somewhere; the sample as a whole holds those more often.
VALUE_TYPE: growth (%)
State just the number; it will be interpreted in %.

Guide cases for growth, answers given:
COMPOUND: COc1ccc([C@H]2C(=O)N(c3cc(OC)c(OC)c(OC)c3)[C@@H]2c2ccc(OC)c(O)c2)cc1
TARGET_OR_TEST_SYSTEM: KM12 colon
VALUE_TYPE: growth
QUANTITATIVE_READOUT: 12.4

COMPOUND: COc1cccc2c1C=CC1(O2)Oc2cccc(OC)c2C=C1C (stereo not drawn)
TARGET_OR_TEST_SYSTEM: KM12 colon
VALUE_TYPE: growth
QUANTITATIVE_READOUT: 20.5

Continue with the next compound.
Find the recorded growth belonging to Cc1[nH]c(C(=O)Nc2ccccc2OCc2cccc(C(=O)NC3CCNC3)c2)c(Cl)c1Cl (stereo not drawn) and report it.
-1.67

* * *

growth values for the compounds below.
- System: IGROV1 ovarian
- RUN_DESCRIPTION: NCI-60 one-dose screen, 48 h (100 = growth as untreated, 0 = no growth, -100 = all killed)
- MEASUREMENT_SETUP: 10 µM unless noted
- Procedure: Growth inhibition of the IGROV1 human tumor cell line is measured as a screen for anti-cancer activity. Cells are grown in 96 well plates and exposed to the test compound for 48 hours. Compounds are tested at a single concentration, which is 10^-5 M for most compounds. The reported endpoint is percent growth (GI% or GIPRCNT), where numbers from 0 - 100% represent growth inhibition, and numbers from -100% - 0 represent cell death. For example, a value of 40 represents 60% growth inhibition. […]
Compounds without any hit were thinned out: in the full panel of roughly 83,000, 20% have a hit.
State just the number; it will be interpreted in %.

COMPOUND: C#C[C@]1(O)CC[C@H]2[C@@H]3CC=C4c5sc(Nc6cccc(F)c6)nc5CC[C@]4(C)[C@H]3CC[C@@]21C
VALUE_TYPE: growth
UNIT_NAME: %
QUANTITATIVE_READOUT: 49.8
--
COMPOUND: C/C(CC1(O)C(=O)Nc2ccccc21)=N\O (stereo not given)
VALUE_TYPE: growth
UNIT_NAME: %
QUANTITATIVE_READOUT: 97.9
--
COMPOUND: C(=N\Nc1nc(N/N=C/c2ccc3c(c2)OCO3)nc(N2CCCCC2)n1)/c1ccc2c(c1)OCO2
VALUE_TYPE: growth
UNIT_NAME: %
QUANTITATIVE_READOUT: 76.9
--
COMPOUND: CC(=O)Nc1ccccc1-c1nc2ccccc2s1
VALUE_TYPE: growth
UNIT_NAME: %
QUANTITATIVE_READOUT: 101

Find the recorded growth belonging to COc1ccc(C2C(C#N)=C(/N=C/c3ccc(Cl)cc3)Oc3c2sc2c(C)cccc32)cc1 (stereo not given) and report it.
23.6
